Procedure text: TIMS collisional cross section (CCS, N2) of the lipid ion; higher = larger ion cross section
Details: sample type: Liver; ionization mode: positive; one isomer drawn
Measure: TIMS collisional cross section (Å²)
Enter your answer as a number in Å²; do not include the unit.

{"columns": ["Compound", "Unit", "TIMS collisional cross section"],
 "data": [
  ["CCCCC/C=C\\C/C=C\\C/C=C\\CCCCCCC(=O)OC[C@@H](O)COP(=O)([O-])OCC[N+](C)(C)C [LPC 20:3] (ion (formula + adduct): [C28H52NO7P+H] 1+)", "Å²", 236.2],
  ["CCCCC/C=C\\C/C=C\\CCCCCCCCCC(=O)O[C@H](COC(=O)CCCCCCCCCCCCCCCCC)COP(=O)([O-])OCC[N+](C)(C)C [PC 18:0_20:2@] (ion (formula + adduct): [C46H88NO8P+H] 1+)", "Å²", 297.5]
]}

For the compound CC/C=C\C/C=C\C/C=C\C/C=C\C/C=C\CCCCCC(=O)O[C@@H](CO)COC(=O)CCCCCCC/C=C\CCCCCCCC [DG 18:1_22:5_0:0] (ion (formula + adduct): [C43H72O5+NH4] 1+) , give its reported TIMS collisional cross section.
272.3

---

Procedure text: TIMS collisional cross section (CCS, N2) of the lipid ion; higher = larger ion cross section
Details: sample type: Liver; ionization mode: positive; one isomer drawn
Short version: TIMS collisional cross section at least 300 Å² is yes (1), less is no (0).

Field: example entries. Status: answers known.
{"columns": ["Compound", "Discrete label"],
 "data": [
  ["CCCCC/C=C\\C/C=C\\C/C=C\\C/C=C\\CCCC(=O)OC[C@@H](COC(=O)CCCCCCC/C=C\\CCCCCC)OC(=O)CCCCCCC/C=C\\CCCCCCCC [TG 16:1_18:1_20:4] (ion (formula + adduct): [C57H98O6+NH4] 1+)", "yes (1)"],
  ["CCCCCC/C=C\\CCCCCCCC(=O)O[C@@H](CO)COC(=O)CCCCCCCCCCCCCCC [DG 16:0_16:1_0:0] (ion (formula + adduct): [C35H66O5+NH4] 1+)", "no (0)"],
  ["CCCCC/C=C\\C/C=C\\C/C=C\\C/C=C\\CCCC(=O)O[C@H](COC(=O)CCCCCCCCCCCCCCC)COP(=O)(O)OCCN [PE 16:0_20:4] (ion (formula + adduct): [C41H74NO8P+H] 1+)", "no (0)"],
  ["CCCCC/C=C\\C/C=C\\C/C=C\\C/C=C\\CCCCCC(=O)O[C@H](CO)COP(=O)(O)OCCN [LPE 22:4] (ion (formula + adduct): [C27H48NO7P+H] 1+)", "no (0)"],
  ["CCCCCCCCCCCCCCCCCCCCCC(=O)OC[C@@H](COC(=O)CCCCCCCCCCCCCCC)OC(=O)CCCCCCCCCCCCCCCC [TG 16:0_17:0_22:0] (ion (formula + adduct): [C58H112O6+NH4] 1+)", "yes (1)"],
  ["CCCCC/C=C\\C/C=C\\CCCCCCCC(=O)O[C@H](COC(=O)CCCCCCCCCCCCCCCCCCC)COP(=O)(O)OCCN [PE 20:0@_18:2] (ion (formula + adduct): [C43H82NO8P+H] 1+)", "no (0)"]
]}

For the next question, use this compound.
Would you say CCCCC/C=C\C/C=C\CCCCCCCC(=O)O[C@H](CO/C=C\CCCCCCCCCCCCCC)COP(=O)(O)OCCN [PE P- 16:0@_18:2] (ion (formula + adduct): [C39H74NO7P+H] 1+) shows TIMS collisional cross section at minimum 300 Å²?
no (0)

The reported measurements were obtained from the supplement of paper PMC6965134.
